Label criterion not met if glass transition temperature falls below 100 °C; label criterion met in every other case.

[
  {
    "Compound": "*CCCCCCCCCCC(=O)NCCc1ccc(CCNC(=O)CCCCCCCCCCS*)cc1 (repeat unit)",
    "Class assignment": "criterion not met"
  },
  {
    "Compound": "*COC(=O)NCc1ccc(CNC(=O)OCc2ccc(*)o2)o1 (repeat unit)",
    "Class assignment": "criterion not met"
  },
  {
    "Compound": "*CC(*)(C)C(=O)OCCS(=O)CC (repeat unit)",
    "Class assignment": "criterion not met"
  },
  {
    "Compound": "*Oc1ccc(C(C)(C)c2ccc(OC(=O)c3cccc(C(F)(F)C(F)(F)C(F)(F)c4cccc(C(*)=O)c4)c3)cc2)cc1 (repeat unit)",
    "Class assignment": "criterion met"
  },
  {
    "Compound": "*CC(*)(C)C(=O)OCCN(CC)c1ccc(/N=N/c2nc3ccc([N+](=O)[O-])cc3s2)cc1 (repeat unit)",
    "Class assignment": "criterion met"
  }
]
